Provide the reported Area under the dose-response curve (AUC) MCC13 Replicate 2 of each item.
- System: MCC13 cells (VN-MCC)
- PROCEDURE DETAILS: qHTS cell viability (CellTiter-Glo, 72 h; primary and follow-up small molecule screen)
- Format: cell-based, human

Fill in Area under the dose-response curve (AUC) MCC13 Replicate 2 for record CC(C)(C)CC(C)(C)c1ccc(OCCOCC[N+](C)(C)Cc2ccccc2)cc1 [Benzethonium chloride] 458.8

Fill in Area under the dose-response curve (AUC) MCC13 Replicate 2 for record CC(/C=C/C(=O)NO)=C\[C@@H](C)C(=O)c1ccc(N(C)C)cc1 438.9

Fill in Area under the dose-response curve (AUC) MCC13 Replicate 2 for record CN(C)C(=O)Nc1ccc(Cl)c(Cl)c1 471.6

Fill in Area under the dose-response curve (AUC) MCC13 Replicate 2 for record CCCNC(=O)[C@H]1O[C@@H]1C(=O)N[C@H](C(=O)N1CCC[C@H]1C(=O)OC)C(C)CC (stereo partly shown) 470.8

---

- Tested on: NIH-3T3 cells
- PROCEDURE DETAILS: qHTS cell viability (CellTiter-Glo, 72 h; primary screen), control cell line
- Assay type: cell-based, mouse
- CONDITION SUMMARY: area under the dose-response curve, NIH3T3 control cells; AUC<450 = reduced viability
Provide the reported NIH3T3_AUC of each item.
// keep it numeric: no unit symbol after the value

Fill in NIH3T3_AUC for record O=C(CCCN1CCC(O)(c2ccc(Br)cc2)CC1)c1ccc(F)cc1 484.97

Fill in NIH3T3_AUC for record Cc1nc2ccccn2c(=O)c1CCN1CCC(C(=O)c2ccc(F)cc2)CC1 477.551

Fill in NIH3T3_AUC for record O=C(CCc1ccc(O)cc1)c1c(O)cc(O)cc1O 475.685
